The reported measurements were obtained from patent US20170283440A1.

Measured pIC50 accompanies every entry in the list below.
- target: Human CARM1 (PRMT4) (Homo sapiens, UniProt Q86X55)
- Construct: Flag-CARM1-His was eluted with 200 ug/ml FLAG peptide in buffer A
- Sequence (Q86X55 other isoform, or with tags, fused parts or gaps): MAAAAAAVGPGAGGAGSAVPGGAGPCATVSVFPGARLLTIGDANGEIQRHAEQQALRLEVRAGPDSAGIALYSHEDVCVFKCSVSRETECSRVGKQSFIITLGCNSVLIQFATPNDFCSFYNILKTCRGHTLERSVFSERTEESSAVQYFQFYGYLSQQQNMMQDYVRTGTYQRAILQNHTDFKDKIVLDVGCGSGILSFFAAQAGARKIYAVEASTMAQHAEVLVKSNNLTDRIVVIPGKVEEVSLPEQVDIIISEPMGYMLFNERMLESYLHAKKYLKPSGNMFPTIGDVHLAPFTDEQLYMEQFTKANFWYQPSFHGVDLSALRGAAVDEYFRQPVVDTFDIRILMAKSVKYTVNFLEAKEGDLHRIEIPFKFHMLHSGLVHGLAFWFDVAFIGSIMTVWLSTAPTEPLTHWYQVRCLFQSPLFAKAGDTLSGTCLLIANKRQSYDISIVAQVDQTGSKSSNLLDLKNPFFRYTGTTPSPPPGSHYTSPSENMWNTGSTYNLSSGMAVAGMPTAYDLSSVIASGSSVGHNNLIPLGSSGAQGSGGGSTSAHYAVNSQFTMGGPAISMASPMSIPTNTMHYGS
- run.description: CARM1 enzyme assay on peptide substrate (3H-SAM Flashplate)
- condition.set: CARM1 0.25 nM, 3H-SAM 30 nM, peptide 250 nM; read-out: Biochem IC50
pIC50: −log10 of the molar value.

Consider the reported pIC50 for these compounds:
- CNCC(O)COc1cc(OC)cc(-c2cc(-c3cnc4[nH]ccc4c3)c3cnn(C(C)C)c3n2)c1 (centres unmarked): > 7.00
- CNCC(O)COc1cc(Cl)cc(-c2cc(N(C)CCOC)n3ncc(C(C)C)c3n2)c1 (centres unmarked): > 7.00
- CNCC(O)COc1cccc(-c2cc(N3CCOC3=O)n3ncc(C(C)C)c3n2)c1 (centres unmarked): 6.00 to 7.00
- CNCC(O)COc1cccc(-c2cc(NC(=O)NC)c3cnn(C(C)C)c3n2)c1 (centres unmarked): 6.00 to 7.00

QUERY: # lookup: pIC50 of CNCC(O)COc1cc(-c2cc(N3CCOCC3)n3ncc(C(C)C)c3n2)cc(C2CC2)c1 (centres unmarked)
RESULT: > 7.00

QUERY: Now give it for CNCC(O)COc1cccc(-c2nc(NC3CCOC3)c3cnn(C(C)C)c3n2)c1 (centres unmarked) too.
RESULT: > 7.00

QUERY: Now give it for CNCC(O)COc1cc(NC)cc(-c2cc(NC3CCOCC3)c3cnn(C(C)C)c3n2)c1 (centres unmarked) too.
RESULT: > 7.00

QUERY: Now give it for CNCC(O)COc1cc(Cl)cc(-c2cc(N3CCOC3=O)n3ncc(C(C)C)c3n2)c1 (centres unmarked) too.
RESULT: 6.00 to 7.00
